Target: KRas G12D mutant (Homo sapiens (Human), UniProt P01116, G12D)
Sequence (P01116 other isoform, or with tags, fused parts or gaps G12D): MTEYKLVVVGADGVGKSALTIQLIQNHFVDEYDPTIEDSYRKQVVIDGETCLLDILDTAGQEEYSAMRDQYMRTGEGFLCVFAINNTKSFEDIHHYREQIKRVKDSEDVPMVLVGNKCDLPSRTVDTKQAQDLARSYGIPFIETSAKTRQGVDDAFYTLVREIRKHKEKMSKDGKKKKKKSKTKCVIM
Assay: Ras GTP Binding Domain Inhibition Assay, KRas G12D mutant
Conditions: 20 μM; without SOS; Table 7; read-out: KRas G12D mutant: % inh.
valueKind: inhibition at 20 µM

Field: example entries. Status: answers known.
| molecule | valueKind | observedValue |
| --- | --- | --- |
| COCCNc1nc(-c2nccn2C)nc2sc(-c3ccccc3)c(-c3ccccc3)c12 | inhibition at 20 µM | 76 to 100% |
| COc1cccc(-c2sc3nc(-c4nccn4C)nc(N[C@@H]4CC[C@@H](OC)C4)c3c2C)c1F (racemic) | inhibition at 20 µM | 1 to 25% |
| Cc1c(-c2ccn(C(C)C)n2)sc2nc(-c3nccn3C)nc(NCC3COCCN3C)c12 (racemic) | inhibition at 20 µM | 46 to 75% |
| COc1cccc(-c2sc3nc(-c4nccn4C)nc(N[C@@H]4CC[C@@H](OC)C4)c3c2-c2ccccc2)c1F (racemic) | inhibition at 20 µM | 1 to 25% |
| COc1cccc(-c2sc3nc(-c4nccn4C)nc(N[C@H]4C[C@H](OC)C4)c3c2-c2ccccc2)c1F | inhibition at 20 µM | 46 to 75% |

Now for the molecule whose inhibition at 20 µM we want.
Record summary for COCCNc1nc(-c2cn(C)cn2)nc2sc(-c3cccc(OC)c3Cl)c(-c3ccc(OC)cc3)c12 : reported inhibition at 20 µM = 26 to 45%

###

Target: KRas G12D mutant (Homo sapiens (Human), UniProt P01116, G12D)
Assay: Ras GTP Binding Domain Inhibition Assay, KRas G12D mutant
Conditions: 20 μM; + SOS; Table 7; read-out: KRas G12D mutant + SOS: % inh.
Entries and their inhibition at 20 µM values follow.

| molecule | assayedTarget | inhibition at 20 µM |
| --- | --- | --- |
| COCCNc1nc(-c2nccn2C)nc2sc(-c3cccc(OC)c3Cl)c(-c3ccccc3)c12 [Compound 9] | KRas G12D mutant (Homo sapiens (Human), UniProt P01116, G12D) | 46 to 75% |
| COc1cccc(-c2sc3nc(-c4nccn4C)nc(NC4CCC(OC)C4)c3c2C)c1F (racemic) [Compound 10] | KRas G12D mutant (Homo sapiens (Human), UniProt P01116, G12D) | 46 to 75% |
| COCCn1c(-c2nccn2C)nc2sc(-c3ccn(C(C)C)n3)c(C)c2c1=O [Compound 29] | KRas G12D mutant (Homo sapiens (Human), UniProt P01116, G12D) | 46 to 75% |
| CO[C@@H]1CC[C@H](Nc2nc(-c3nccn3C)nc3sc(-c4ccn(C(C)C)n4)c(-c4ccccc4)c23)C1 (single isomer, unassigned) [Compound 11] | KRas G12D mutant (Homo sapiens (Human), UniProt P01116, G12D) | 46 to 75% |
| Cc1c(-c2ccn(C(C)C)n2)sc2nc(-c3nccn3C)nc(NCC3CN(C)CCO3)c12 (racemic) [Compound 25] | KRas G12D mutant (Homo sapiens (Human), UniProt P01116, G12D) | 76 to 100% |

Now for the molecule whose inhibition at 20 µM we want.
Record summary for COCCCOc1nc(-c2nccn2C)nc2sc(-c3ccn(C(C)C)n3)c(C)c12 [Compound 32] : reported inhibition at 20 µM = 46 to 75%

###

Entries and their inhibition at 20 µM values follow.
Molecular target: KRas G12D mutant (Homo sapiens (Human), UniProt P01116, G12D)
Assay: Ras GTP Binding Domain Inhibition Assay, KRas G12D mutant
Settings: 20 μM; without SOS; Table 7; read-out: KRas G12D mutant: % inh.

Field: example entries. Status: answers known.
| molecule | assayedTarget | inhibition at 20 µM |
| --- | --- | --- |
| COCCCOc1nc(-c2nccn2C)nc2sc(-c3ccn(C(C)C)n3)c(C)c12 [Compound 32] | KRas G12D mutant (Homo sapiens (Human), UniProt P01116, G12D) | 46 to 75% |
| COCCn1ccc(-c2sc3nc(-c4nccn4C)nc(NC[C@H]4CC[C@H]4COC)c3c2C)n1 (racemic) [Compound 38] | KRas G12D mutant (Homo sapiens (Human), UniProt P01116, G12D) | 26 to 45% |
| Cc1c(-c2ccn(C(C)C)n2)sc2nc(-c3nccn3C)nc(NCC3CN(C)CCO3)c12 (racemic) [Compound 25] | KRas G12D mutant (Homo sapiens (Human), UniProt P01116, G12D) | 76 to 100% |

Record summary for COc1nccc(-c2sc3nc(-c4nccn4C)nc(N[C@H]4C[C@H](OC)C4)c3c2-c2ccccc2)c1F [Compound 45] : reported inhibition at 20 µM = 46 to 75%
